# credit: PubChem BioAssay AID1465

System: S. cerevisiae Yfh1-off respiration, WST-1 reduction, 72 h
TEST_DESCRIPTION: mitochondrial function rescue without frataxin homolog – Friedreich's ataxia, plus single-dose screen, dose response (AID 1465);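 also: activators that raise dye reduction in frataxin-depleted yeast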
READOUT_KIND: pEC50
Give bare numbers, as −log10 of the molar value.

- COMPOUND: "CN1/C(=C\\C=C2C(=O)NC(=O)NC2=O)C(C)(C)c2ccccc21"
  pEC50: 4.01
- COMPOUND: "Cc1coc2c1C(=O)C(=O)c1c-2ccc2c(C)cccc12"
  pEC50: 4.10
- COMPOUND: "CCCCCC(=O)NNC(=S)NC(C)=O"
  pEC50: 4.46

Please give pEC50, item by item, for the list that follows.
1. O=C1c2ccccc2NC(c2ccc(-c3cccc(Cl)c3)o2)N1O (centres undefined)
2. CCCCC(=O)NC(c1cccs1)c1cc(Cl)c2cccnc2c1O (centres undefined)
3. O=C1NC(=O)C(=Cc2ccc(N3CCOCC3)o2)C(=O)N1
4. NC(=S)n1[nH]c(-c2ccc([N+](=O)[O-])cc2)c(N=Nc2cccc([N+](=O)[O-])c2)c1=O
5. O=C(C1=C(c2ccccc2)C(=O)c2ccccc2C1=O)c1ccccc1
6. Cc1ccccc1C(=O)/C(C#N)=N/Nc1c(C)n(C)n(-c2ccccc2)c1=O
7. COc1ccc(C2=NN(c3nc4ccccc4s3)C(=O)C2)cc1

Reply:
1: 4.10; 2: 5.07; 3: 4.01; 4: 4.36; 5: 4.45; 6: 4.22; 7: 4.23

* * *

Tested on: S. cerevisiae Yfh1-off respiration, WST-1 reduction, 72 h
TEST_DESCRIPTION: mitochondrial function rescue without frataxin homolog – Friedreich's ataxia, plus single-dose screen, dose response (AID 1465);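 also: activators that raise dye reduction in frataxin-depleted yeast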
Would you kindly list pEC50 for each of these compounds?
Answers are plain numbers, as −log10 of the molar value.

Answered cases to consult:
- COMPOUND: "CC1=C(C)C(=O)C(N2CCOCC2)=CC1=O"
  TESTED_SYSTEM: "S. cerevisiae Yfh1-off respiration, WST-1 reduction, 72 h"
  pEC50: 4.85
- COMPOUND: "O=C(Cn1nc(Cl)nc1Cl)c1cc2ccccc2oc1=O"
  TESTED_SYSTEM: "S. cerevisiae Yfh1-off respiration, WST-1 reduction, 72 h"
  pEC50: 4.14
- COMPOUND: "CCCC(=O)NC(c1ccco1)c1cc([N+](=O)[O-])c2cccnc2c1O (stereo not given)"
  TESTED_SYSTEM: "S. cerevisiae Yfh1-off respiration, WST-1 reduction, 72 h"
  pEC50: 4.26
- COMPOUND: "O=c1cc(-c2ccccc2)[nH]n1-c1nc2ccccc2s1"
  TESTED_SYSTEM: "S. cerevisiae Yfh1-off respiration, WST-1 reduction, 72 h"
  pEC50: 4.31
- COMPOUND: "Cc1oc2c(c1C(=O)c1ccccc1)C(=O)C(=O)c1ccccc1-2"
  TESTED_SYSTEM: "S. cerevisiae Yfh1-off respiration, WST-1 reduction, 72 h"
  pEC50: 4.45

Quick batch: pEC50 for everything below.
1. COc1cc([N+](=O)[O-])cc(/C=N/NC(=O)c2cc(-c3ccccc3)nc3ccccc23)c1O
2. CC1CC(=O)c2c(cc3c(-c4c(O)cc(O)c5c(O)c6c(cc45)OC(C)CC6=O)c(O)cc(O)c3c2O)O1 (stereo not given)
3. Cc1cc(C(=O)N/N=C/c2ccc(O)c(O)c2O)c(C)n1-c1ccccc1
4. CCC(=O)NC(c1ccc(OC)c(OC)c1)c1cc(Cl)c2cccnc2c1O (stereo not given)
5. CCN1CCS/C1=C/C=C/C1=[N+](CC)CCS1

Reply:
4.45
4.12
4.34
4.53
4.25

* * *

Could you please report measured EC50 for the items listed next?
Test system: S. cerevisiae Yfh1-off respiration, WST-1 reduction, 72 h
TEST_DESCRIPTION: mitochondrial function rescue without frataxin homolog – Friedreich's ataxia, plus single-dose screen, dose response (AID 1465);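 also: activators that raise dye reduction in frataxin-depleted yeast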

- COMPOUND: "O=C(CCc1ccccc1)NC(c1cccs1)c1cc(Cl)c2cccnc2c1O (stereo not given)"
  TESTED_SYSTEM: "S. cerevisiae Yfh1-off respiration, WST-1 reduction, 72 h"
  EC50: "7.44 µM"
- COMPOUND: "COc1cc(/C=N/NC(=O)c2cncc(Br)c2)cc([N+](=O)[O-])c1O"
  TESTED_SYSTEM: "S. cerevisiae Yfh1-off respiration, WST-1 reduction, 72 h"
  EC50: "58.1 µM"
- COMPOUND: "CC(=O)NC(c1ccc(C)cc1)c1cc([N+](=O)[O-])c2cccnc2c1O (stereo not given)"
  TESTED_SYSTEM: "S. cerevisiae Yfh1-off respiration, WST-1 reduction, 72 h"
  EC50: "25 µM"

Dear colleague, could you send me EC50 for each of the items below? Thanks.
1. COC(=O)c1ccc(=O)c2nc3/c(=C/O)c(O)cc(=O)c3[nH]c12
2. CCCC(=O)NC(c1cccs1)c1cc([N+](=O)[O-])c2cccnc2c1O (stereo not given)

Reply:
["21.9 µM", "20.9 µM"]

* * *

Tested on: S. cerevisiae Yfh1-off respiration, WST-1 reduction, 72 h
TEST_DESCRIPTION: mitochondrial function rescue without frataxin homolog – Friedreich's ataxia, plus single-dose screen, dose response (AID 1465);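 also: activators that raise dye reduction in frataxin-depleted yeast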
READOUT_KIND: pEC50
Answers are plain numbers, as −log10 of the molar value.

- COMPOUND: "O=C(COc1ccc(Cl)cc1Cl)NNC(=S)Nc1ccc(F)cc1"
  TESTED_SYSTEM: "S. cerevisiae Yfh1-off respiration, WST-1 reduction, 72 h"
  READOUT_KIND: "pEC50"
  NUMBER: 4.08

Quick request: pEC50 for each listed item, please.
1. CCC(=O)NC(c1cccs1)c1cc(Cl)c2cccnc2c1O (stereo unspecified)
2. CCN1/C(=C\C=C(C(C)=O)C(C)=O)Sc2ccccc21
3. O=[N+]([O-])c1cccc(/C=N/Nc2nc(NCc3ccccc3)nc(N3CCOCC3)n2)c1O
4. Cn1cccc1/C=C1\SC(=S)N(CC(=O)O)C1=O
5. CC1=CC(=Cc2sc3ccccc3[n+]2C)C=C(C)O1
6. CCC(=O)NC(c1ccc(C)cc1)c1cc([N+](=O)[O-])c2cccnc2c1O (stereo unspecified)
7. Oc1ccc(CN2CCC(Cc3ccccc3)CC2)c2cccnc12

Reply:
[4.18, 4.06, 4.29, 4.04, 4.03, 4.61, 4.01]

* * *

Hi there, I'd appreciate the recorded pEC50 for every entry that follows.
System: S. cerevisiae Yfh1-off respiration, WST-1 reduction, 72 h
TEST_DESCRIPTION: mitochondrial function rescue without frataxin homolog – Friedreich's ataxia, plus single-dose screen, dose response (AID 1465);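 also: activators that raise dye reduction in frataxin-depleted yeast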
One number for each entry, as −log10 of the molar value.

Below: 10 compounds and their reported pEC50.
- COMPOUND: "O=C(N/N=C/c1c(O)n(Cc2ccccc2)c(=O)c2ccccc12)c1cccnc1"
  TESTED_SYSTEM: "S. cerevisiae Yfh1-off respiration, WST-1 reduction, 72 h"
  pEC50: 4.14
- COMPOUND: "Cc1c(N/N=C(\\C#N)C(=O)c2ccc(Cl)cc2)c(=O)n(-c2ccccc2)n1C"
  TESTED_SYSTEM: "S. cerevisiae Yfh1-off respiration, WST-1 reduction, 72 h"
  pEC50: 4.67
- COMPOUND: "c1ccc(-c2ccc(SCc3cccnc3)nn2)nc1"
  TESTED_SYSTEM: "S. cerevisiae Yfh1-off respiration, WST-1 reduction, 72 h"
  pEC50: 4.37
- COMPOUND: "CCC(C(=O)O)N1C(=O)/C(=C/c2cccn2C)SC1=S (centres undefined)"
  TESTED_SYSTEM: "S. cerevisiae Yfh1-off respiration, WST-1 reduction, 72 h"
  pEC50: 4.01
- COMPOUND: "COc1ccc(Cn2c(O)c(/C=N/NC(=O)c3cccnc3)c3ccccc3c2=O)cc1"
  TESTED_SYSTEM: "S. cerevisiae Yfh1-off respiration, WST-1 reduction, 72 h"
  pEC50: 4.12
- COMPOUND: "Cc1ccc(NS(=O)(=O)c2cc([N+](=O)[O-])ccc2NNC(=S)Nc2cccc(Cl)c2)c(C)c1"
  TESTED_SYSTEM: "S. cerevisiae Yfh1-off respiration, WST-1 reduction, 72 h"
  pEC50: 4.51
- COMPOUND: "O=C(NNC1=C(C(=O)C(F)(F)F)CCC1)c1ccc(Br)cc1"
  TESTED_SYSTEM: "S. cerevisiae Yfh1-off respiration, WST-1 reduction, 72 h"
  pEC50: 4.22
- COMPOUND: "O=[N+]([O-])c1ccc(Sc2cccc[n+]2[O-])c2nonc12"
  TESTED_SYSTEM: "S. cerevisiae Yfh1-off respiration, WST-1 reduction, 72 h"
  pEC50: 4.77
- COMPOUND: "CCOC(=O)C1=C(Cc2ccc(F)cc2)C(=O)c2ccccc2C1=O"
  TESTED_SYSTEM: "S. cerevisiae Yfh1-off respiration, WST-1 reduction, 72 h"
  pEC50: 4.44
- COMPOUND: "COc1ccccc1N1CCN(Cc2ccc(O)c3ncccc23)CC1"
  TESTED_SYSTEM: "S. cerevisiae Yfh1-off respiration, WST-1 reduction, 72 h"
  pEC50: 4.37

For every record below, what is its pEC50?
1. Cc1c(N/N=C(\C#N)C(=O)c2ccccc2)c(=O)n(-c2ccccc2)n1C
2. COc1ccccc1C(=O)NNC1=C(C(=O)C(F)(F)F)CCC1
3. O=C(O)c1cccc(NC(=S)N/N=C/c2ccccn2)c1
4. O=C1C(Cl)=C(Nc2ccccc2)C(=O)c2ccccc21
5. CC1=CC(=O)c2ccccc2C1=O
6. O=C(O)c1cccc2nc3ccccc3nc12
7. CCOC(=O)/C(C#N)=C\C=C1C=CN(C)C=C1
8. CC(=O)NC(c1cccs1)c1cc([N+](=O)[O-])c2cccnc2c1O (centres undefined)

Reply:
[4.28, 4.60, 4.11, 4.17, 4.34, 4.32, 4.02, 4.60]

Go through the list and state pEC50 for each entry.
1. CC[n+]1c(C=C2C=C(C)OC(C)=C2)sc2ccccc21
2. CCCCC(=O)NC(c1ccccc1OC)c1ccc2cccnc2c1O (centres undefined)
3. CCN(CC)c1ccc(/C=N/NC(=O)c2cccc(S(=O)(=O)Nc3ccccc3OC)c2)c(O)c1
4. CCOC(=O)c1c(C)oc2c1c(CN1CCN(CCO)CC1)c(O)c1ccccc12
5. CC1=C(C)C(=O)C(CCCCC#CCCCC#CCO)=C(C)C1=O
6. CCC(=O)NC(c1ccc(OC)cc1)c1cc(Cl)c2cccnc2c1O (centres undefined)

Reply:
[4.08, 4.44, 4.12, 4.07, 4.02, 4.42]
